targetUnderTest: Gal-1 (Homo sapiens, UniProt P09382)
Construct: made in house; host or cells: E. coli BL21(DE3)
Sequence (P09382 whole entry): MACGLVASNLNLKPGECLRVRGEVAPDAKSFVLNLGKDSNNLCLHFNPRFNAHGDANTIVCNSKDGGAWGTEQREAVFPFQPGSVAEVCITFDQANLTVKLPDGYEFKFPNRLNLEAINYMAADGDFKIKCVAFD
protocolSummary: Competition pull-down with lactose
Assay type: binding
conditionLabel: H14 library; lactose 10 mM; read-out: Surface mapping KD (apparent), competition
Please respond with reported pKd for every item in the list.
// pKd is dimensionless: -log10 of concentration (M)

q: Quick one: pKd of `NC(=O)[C@H]1CCCC[C@@H]1NC(=O)C[C@H](Cc1c[nH]c2ccccc12)NC(=O)[C@H]1CCCC[C@@H]1NC(=O)[C@H]1CCCC[C@@H]1NC(=O)C[C@H](Cc1ccccc1)NC(=O)[C@H]1CCCC[C@@H]1N` ?
a: 3.91

q: Same lookup for `CSCC[C@@H](CC(=O)N[C@H]1CCCC[C@@H]1C(=O)N[C@H]1CCCC[C@@H]1C(=O)N[C@H](CC(=O)N[C@H]1CCCC[C@@H]1C(N)=O)Cc1c[nH]c2ccccc12)NC(=O)[C@H]1CCCC[C@@H]1N` , please.
a: 3.76

q: Same lookup for `NC(=O)CC[C@@H](CC(=O)N[C@H]1CCCC[C@@H]1C(=O)N[C@H]1CCCC[C@@H]1C(=O)N[C@@H](CCC(=O)O)CC(=O)N[C@H]1CCCC[C@@H]1C(N)=O)NC(=O)[C@H]1CCCC[C@@H]1N` , please.
a: 3.42

q: Same lookup for `CC(C)[C@@H](CC(=O)N[C@H]1CCCC[C@@H]1C(N)=O)NC(=O)[C@H]1CCCC[C@@H]1NC(=O)[C@H]1CCCC[C@@H]1NC(=O)C[C@H](CC(N)=O)NC(=O)[C@H]1CCCC[C@@H]1N` , please.
a: 3.42

q: Same lookup for `NC(=O)[C@H]1CCCC[C@@H]1NC(=O)C[C@H](Cc1ccc(O)cc1)NC(=O)[C@H]1CCCC[C@@H]1NC(=O)[C@H]1CCCC[C@@H]1NC(=O)C[C@H](CO)NC(=O)[C@H]1CCCC[C@@H]1N` , please.
a: 3.46

q: Same lookup for `CC(C)[C@@H](CC(=O)N[C@H]1CCCC[C@@H]1C(N)=O)NC(=O)[C@H]1CCCC[C@@H]1NC(=O)[C@H]1CCCC[C@@H]1NC(=O)C[C@H](CCCNC(=N)N)NC(=O)[C@H]1CCCC[C@@H]1N` , please.
a: 3.38

q: Same lookup for `NC(=O)CC[C@@H](CC(=O)N[C@H]1CCCC[C@@H]1C(=O)N[C@H]1CCCC[C@@H]1C(=O)N[C@H](CC(=O)N[C@H]1CCCC[C@@H]1C(N)=O)Cc1ccccc1)NC(=O)[C@H]1CCCC[C@@H]1N` , please.
a: 3.50

q: Same lookup for `NC(=O)CC[C@@H](CC(=O)N[C@H]1CCCC[C@@H]1C(N)=O)NC(=O)[C@H]1CCCC[C@@H]1NC(=O)[C@H]1CCCC[C@@H]1NC(=O)C[C@H](CO)NC(=O)[C@H]1CCCC[C@@H]1N` , please.
a: 3.34

q: Same lookup for `NC(=O)[C@H]1CCCC[C@@H]1NC(=O)C[C@H](Cc1ccccc1)NC(=O)[C@H]1CCCC[C@@H]1NC(=O)[C@H]1CCCC[C@@H]1NC(=O)C[C@H](Cc1ccc(O)cc1)NC(=O)[C@H]1CCCC[C@@H]1N` , please.
a: 3.63
